System: NCI-H1651
Experiment: relative viability (nuclei count vs DMSO), 5 days (fraction); higher = more cells survive
Conditions: first compound 0.08 µM
Readout Name: relative viability

>>> data_value("COc1nc(C)cnc1NS(=O)(=O)c1cccnc1-c1ccc(-c2nnco2)cc1 [Zibotentan] + Cc1cc(Nc2cc(N3CCN(C)CC3)nc(Sc3ccc(NC(=O)C4CC4)cc3)n2)n[nH]1 [Tozasertib] (partner 0.1 µM)")
0.678
>>> data_value("O=c1cc(-c2cccc3c2Sc2ccccc2S3)oc(N2CCOCC2)c1 + Cc1cc(Nc2cc(N3CCN(C)CC3)nc(Sc3ccc(NC(=O)C4CC4)cc3)n2)n[nH]1 [Tozasertib] (partner 0.1 µM)")
0.669
>>> data_value("O=c1cc(-c2cccc3c2Sc2ccccc2S3)oc(N2CCOCC2)c1 + Nc1ncn([C@H]2C[C@H](O)[C@@H](CO)O2)c(=O)n1 [Decitabine] (partner 2 µM)")
0.575
>>> data_value("COc1nc(C)cnc1NS(=O)(=O)c1cccnc1-c1ccc(-c2nnco2)cc1 [Zibotentan] + COc1cccc2cc(-c3nc([C@H]4CC[C@H](C(=O)O)CC4)n4ncnc(N)c34)[nH]c12 [OSI-027] (partner 0.5 µM)")
0.694
>>> data_value("COc1nc(C)cnc1NS(=O)(=O)c1cccnc1-c1ccc(-c2nnco2)cc1 [Zibotentan] + O=C(CCCCCCC(=O)Nc1ccccc1)NO [Vorinostat] (partner 1 µM)")
0.543
>>> data_value("COc1nc(C)cnc1NS(=O)(=O)c1cccnc1-c1ccc(-c2nnco2)cc1 [Zibotentan] + CS(=O)(=O)N1CCN(Cc2cc3nc(-c4cccc5[nH]ncc45)nc(N4CCOCC4)c3s2)CC1 [Pictilisib] (partner 1 µM)")
0.742

---

Recorded relative viability for the following compounds
Test system: LK-2
Assay: relative viability (nuclei count vs DMSO), 5 days (fraction); higher = more cells survive
Settings: first compound 0.3162 µM
Readout Name: relative viability

>>> data_value("CCN(CC)CCCCNc1ncc2cc(-c3cc(OC)cc(OC)c3)c(NC(=O)NC(C)(C)C)nc2n1 + Nc1nc2[nH]cc(CCc3ccc(C(=O)N[C@@H](CCC(=O)O)C(=O)O)cc3)c2c(=O)[nH]1 [Pemetrexed] (partner 0.2 µM)")
0.149
>>> data_value("CCN(CC)CCCCNc1ncc2cc(-c3cc(OC)cc(OC)c3)c(NC(=O)NC(C)(C)C)nc2n1 + COc1cc2c(Oc3ccc(NC(=O)C4(C(=O)Nc5ccc(F)cc5)CC4)cc3F)ccnc2cc1OCCCN1CCOCC1 [Foretinib] (partner 0.25 µM)")
0.962
>>> data_value("O=c1cc(N2CCOCC2)oc2c(-c3cccc4c3sc3ccccc34)cccc12 + CC(=O)c1c(C)c2cnc(Nc3ccc(N4CCNCC4)cn3)nc2n(C2CCCC2)c1=O [Palbociclib] (partner 0.5 µM)")
0.638
>>> data_value("CCN(CC)CCCCNc1ncc2cc(-c3cc(OC)cc(OC)c3)c(NC(=O)NC(C)(C)C)nc2n1 + CC(=O)c1c(C)c2cnc(Nc3ccc(N4CCNCC4)cn3)nc2n(C2CCCC2)c1=O [Palbociclib] (partner 0.5 µM)")
0.502
>>> data_value("CCN(CC)CCCCNc1ncc2cc(-c3cc(OC)cc(OC)c3)c(NC(=O)NC(C)(C)C)nc2n1 + Nc1ncn([C@H]2C[C@H](O)[C@@H](CO)O2)c(=O)n1 [Decitabine] (partner 2 µM)")
0.217

---

Test system: NCI-H460
Assay: relative viability (nuclei count vs DMSO), 5 days (fraction); higher = more cells survive
Details: first compound 0.3162 µM
Readout Name: relative viability

>>> data_value("CCN(CC)CCCCNc1ncc2cc(-c3cc(OC)cc(OC)c3)c(NC(=O)NC(C)(C)C)nc2n1 + CCNC(=O)c1noc(-c2cc(C(C)C)c(O)cc2O)c1-c1ccc(CN2CCOCC2)cc1 [Luminespib] (partner 0.01 µM)")
0.0358
>>> data_value("CCN(CC)CCCCNc1ncc2cc(-c3cc(OC)cc(OC)c3)c(NC(=O)NC(C)(C)C)nc2n1 + CC(C)C[C@H](NC(=O)[C@H](Cc1ccccc1)NC(=O)c1cnccn1)B(O)O [Bortezomib] (partner 0.002 µM)")
1.62
>>> data_value("O=c1cc(N2CCOCC2)oc2c(-c3cccc4c3sc3ccccc34)cccc12 + COc1cc2c(Oc3ccc(NC(=O)C4(C(=O)Nc5ccc(F)cc5)CC4)cc3F)ccnc2cc1OCCCN1CCOCC1 [Foretinib] (partner 0.25 µM)")
0.985

---

Recorded relative viability for the following compounds
System: NCI-H1993
Assay: relative viability (nuclei count vs DMSO), 5 days (fraction); higher = more cells survive
Conditions: first compound 0.2 µM
Readout Name: relative viability

>>> data_value("COCC1(CO)C(=O)C2CCN1CC2 (stereo not given) [PRIMA-1MET] + N=C(N)NC(=N)NCCc1ccccc1 [Phenformin] (partner 250 µM)")
0.503
>>> data_value("COCC1(CO)C(=O)C2CCN1CC2 (stereo not given) [PRIMA-1MET] + O=C(c1cc(Cc2n[nH]c(=O)c3ccccc23)ccc1F)N1CCN(C(=O)C2CC2)CC1 [Olaparib] (partner 8 µM)")
1.21
>>> data_value("COCC1(CO)C(=O)C2CCN1CC2 (stereo not given) [PRIMA-1MET] + COc1cccc2cc(-c3nc([C@H]4CC[C@H](C(=O)O)CC4)n4ncnc(N)c34)[nH]c12 [OSI-027] (partner 0.5 µM)")
0.569
>>> data_value("COCC1(CO)C(=O)C2CCN1CC2 (stereo not given) [PRIMA-1MET] + CCNC(=O)c1noc(-c2cc(C(C)C)c(O)cc2O)c1-c1ccc(CN2CCOCC2)cc1 [Luminespib] (partner 0.01 µM)")
1.04
>>> data_value("COCC1(CO)C(=O)C2CCN1CC2 (stereo not given) [PRIMA-1MET] + CS(=O)(=O)N1CCN(Cc2cc3nc(-c4cccc5[nH]ncc45)nc(N4CCOCC4)c3s2)CC1 [Pictilisib] (partner 1 µM)")
0.949

---

Recorded relative viability for the following compounds
System: NCI-H1975
Test: relative viability (nuclei count vs DMSO), 5 days (fraction); higher = more cells survive
Conditions: first compound 0.01 µM
Readout Name: relative viability

>>> data_value("CCN(CC)CCCCNc1ncc2cc(-c3cc(OC)cc(OC)c3)c(NC(=O)NC(C)(C)C)nc2n1 + CC(=O)c1c(C)c2cnc(Nc3ccc(N4CCNCC4)cn3)nc2n(C2CCCC2)c1=O [Palbociclib] (partner 0.5 µM)")
0.608
>>> data_value("CCN(CC)CCCCNc1ncc2cc(-c3cc(OC)cc(OC)c3)c(NC(=O)NC(C)(C)C)nc2n1 + N=C(N)NC(=N)NCCc1ccccc1 [Phenformin] (partner 250 µM)")
0.429
>>> data_value("O=c1cc(N2CCOCC2)oc2c(-c3cccc4c3sc3ccccc34)cccc12 + NC(=O)Nc1cc(-c2cccc(F)c2)sc1C(=O)N[C@H]1CCCNC1 [AZD7762] (partner 0.2 µM)")
0.676
>>> data_value("O=c1cc(N2CCOCC2)oc2c(-c3cccc4c3sc3ccccc34)cccc12 + O=C(CCCCCCC(=O)Nc1ccccc1)NO [Vorinostat] (partner 1 µM)")
0.672

---

System: NCI-H1355
Experiment: relative viability (nuclei count vs DMSO), 5 days (fraction); higher = more cells survive
Conditions: first compound 0.253 µM
Recorded relative viability for the following compounds
Readout Name: relative viability

>>> data_value("COc1nc(C)cnc1NS(=O)(=O)c1cccnc1-c1ccc(-c2nnco2)cc1 [Zibotentan] + COc1cc2c(Oc3ccc(NC(=O)C4(C(=O)Nc5ccc(F)cc5)CC4)cc3F)ccnc2cc1OCCCN1CCOCC1 [Foretinib] (partner 0.25 µM)")
1.02
>>> data_value("COc1nc(C)cnc1NS(=O)(=O)c1cccnc1-c1ccc(-c2nnco2)cc1 [Zibotentan] + Nc1ncn([C@H]2C[C@H](O)[C@@H](CO)O2)c(=O)n1 [Decitabine] (partner 2 µM)")
0.337
>>> data_value("O=c1cc(-c2cccc3c2Sc2ccccc2S3)oc(N2CCOCC2)c1 + Nc1nc2[nH]cc(CCc3ccc(C(=O)N[C@@H](CCC(=O)O)C(=O)O)cc3)c2c(=O)[nH]1 [Pemetrexed] (partner 0.2 µM)")
1.15
>>> data_value("COc1nc(C)cnc1NS(=O)(=O)c1cccnc1-c1ccc(-c2nnco2)cc1 [Zibotentan] + CC(C)C[C@H](NC(=O)[C@H](Cc1ccccc1)NC(=O)c1cnccn1)B(O)O [Bortezomib] (partner 0.002 µM)")
1.36
>>> data_value("O=c1cc(-c2cccc3c2Sc2ccccc2S3)oc(N2CCOCC2)c1 + CS(=O)(=O)CCNCc1ccc(-c2ccc3ncnc(Nc4ccc(OCc5cccc(F)c5)c(Cl)c4)c3c2)o1 [Lapatinib] (partner 2 µM)")
1.15
>>> data_value("O=c1cc(-c2cccc3c2Sc2ccccc2S3)oc(N2CCOCC2)c1 + O=C(c1cc(Cc2n[nH]c(=O)c3ccccc23)ccc1F)N1CCN(C(=O)C2CC2)CC1 [Olaparib] (partner 8 µM)")
0.916
>>> data_value("O=c1cc(-c2cccc3c2Sc2ccccc2S3)oc(N2CCOCC2)c1 + N=C(N)NC(=N)NCCc1ccccc1 [Phenformin] (partner 250 µM)")
0.479
